From: patent US9156877B2

Catalogue of compounds with associated IC50
Target: human progesterone receptor B (Homo sapiens)
Sequence (P06401 whole entry): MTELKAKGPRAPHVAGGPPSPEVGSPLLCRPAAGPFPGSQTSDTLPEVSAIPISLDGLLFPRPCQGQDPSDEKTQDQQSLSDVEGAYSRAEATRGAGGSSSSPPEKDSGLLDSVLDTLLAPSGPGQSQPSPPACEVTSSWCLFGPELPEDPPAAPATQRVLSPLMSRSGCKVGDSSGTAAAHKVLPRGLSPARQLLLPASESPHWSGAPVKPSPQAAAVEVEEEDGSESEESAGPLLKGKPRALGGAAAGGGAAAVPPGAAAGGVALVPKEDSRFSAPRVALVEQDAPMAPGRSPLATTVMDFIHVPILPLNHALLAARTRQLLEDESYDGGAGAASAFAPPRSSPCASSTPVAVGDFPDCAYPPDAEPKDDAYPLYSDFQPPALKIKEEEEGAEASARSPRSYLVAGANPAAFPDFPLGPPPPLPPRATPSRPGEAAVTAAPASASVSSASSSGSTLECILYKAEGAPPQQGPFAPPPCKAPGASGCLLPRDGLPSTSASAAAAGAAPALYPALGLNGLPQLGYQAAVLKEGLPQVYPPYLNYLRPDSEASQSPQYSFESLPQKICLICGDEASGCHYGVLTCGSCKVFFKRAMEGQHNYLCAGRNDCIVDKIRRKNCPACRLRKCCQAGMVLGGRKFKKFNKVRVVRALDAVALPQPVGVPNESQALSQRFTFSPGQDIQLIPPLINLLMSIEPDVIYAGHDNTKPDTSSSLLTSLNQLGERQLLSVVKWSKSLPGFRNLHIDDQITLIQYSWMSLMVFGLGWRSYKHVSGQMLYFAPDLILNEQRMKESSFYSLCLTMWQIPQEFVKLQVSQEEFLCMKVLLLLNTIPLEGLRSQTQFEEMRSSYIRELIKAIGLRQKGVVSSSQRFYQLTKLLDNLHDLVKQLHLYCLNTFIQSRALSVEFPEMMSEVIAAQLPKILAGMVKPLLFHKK
Assay: Progesterone receptor-antagonistic action in stably transfected SK-N-MC cells with MMTV-LUC reporter (PR-B)
Conditions: antagonistic potency against 0.1 nmol/l promegestone, 24 hours, luciferase

Some compounds with known IC50 results, for comparison:
1. C[C@]12C[C@H](c3ccc(/C=C/C=C/C(=O)O)cc3)C3=C4CCC(=O)C=C4CC[C@H]3[C@@H]1CC[C@@]2(O)C(F)(F)C(F)(F)F [Example 17] = 0.7 nM
2. C[C@]12C[C@H](c3ccc(/C=C/c4ccncc4)cc3)C3=C4CCC(=O)C=C4CC[C@H]3[C@@H]1CC[C@@]2(O)C(F)(F)C(F)(F)F [Example 8] = 0.077 nM
3. C=CCNC(=O)NC/C=C/c1ccc([C@H]2C[C@@]3(C)[C@@H](CC[C@@]3(O)C(F)(F)C(F)(F)F)[C@@H]3CCC4=CC(=O)CCC4=C32)cc1 [Example 57] = 0.1 nM
4. C[C@]12C[C@H](c3ccc(/C=C/CNC(=O)NCCC(=O)O)cc3)C3=C4CCC(=O)C=C4CCC3C1CC[C@@]2(O)C(F)(F)C(F)(F)F (stereo partly drawn) [Example 50] = 3 nM
5. CC(C)CO/N=C/c1ccc([C@H]2C[C@@]3(C)[C@@H](CC[C@@]3(O)C(F)(F)C(F)(F)F)[C@@H]3CCC4=CC(=O)CCC4=C32)cc1 [Example 38] = 0.1 nM

IC50 reading for COc1ccc(C/C=C/c2ccc([C@H]3C[C@@]4(C)[C@@H](CC[C@@]4(O)C(F)(F)C(F)(F)F)[C@@H]4CCC5=CC(=O)CCC5=C43)cc2)cc1 [Example 3] : 1.8 nM

====

Target: human progesterone receptor A (Homo sapiens, UniProt P06401)
Construct: expressed in transfected cells; host or cells: SK-N-MC human neuroblastoma cells, stably transfected with pRChPR-A-neo and pMMTV-LUC
Sequence (P06401 165-933): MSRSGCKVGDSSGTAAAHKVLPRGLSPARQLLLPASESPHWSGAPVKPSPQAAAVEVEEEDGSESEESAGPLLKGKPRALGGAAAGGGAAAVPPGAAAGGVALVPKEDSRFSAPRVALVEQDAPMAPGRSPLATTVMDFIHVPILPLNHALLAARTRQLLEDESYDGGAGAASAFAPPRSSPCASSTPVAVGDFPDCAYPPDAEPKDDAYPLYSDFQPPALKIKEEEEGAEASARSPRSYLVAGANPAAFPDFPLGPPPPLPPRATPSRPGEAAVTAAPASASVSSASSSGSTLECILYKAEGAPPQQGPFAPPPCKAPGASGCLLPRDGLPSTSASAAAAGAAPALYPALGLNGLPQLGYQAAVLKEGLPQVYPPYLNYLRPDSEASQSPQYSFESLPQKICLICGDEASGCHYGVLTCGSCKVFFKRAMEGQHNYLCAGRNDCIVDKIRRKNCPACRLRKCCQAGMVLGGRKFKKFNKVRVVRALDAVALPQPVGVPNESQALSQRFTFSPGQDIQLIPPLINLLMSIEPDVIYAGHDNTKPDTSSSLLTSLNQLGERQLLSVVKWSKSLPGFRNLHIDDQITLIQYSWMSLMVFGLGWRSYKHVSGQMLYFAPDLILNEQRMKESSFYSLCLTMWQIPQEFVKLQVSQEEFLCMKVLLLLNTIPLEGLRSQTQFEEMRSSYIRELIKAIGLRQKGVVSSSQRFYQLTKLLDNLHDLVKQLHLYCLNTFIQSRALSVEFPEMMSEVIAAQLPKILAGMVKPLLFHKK
Assay: Progesterone receptor-antagonistic action in stably transfected SK-N-MC cells with MMTV-LUC reporter (PR-A)
Assay type: cell-based
Settings: antagonistic potency against 0.1 nmol/l promegestone, 24 hours, luciferase
IC50 vs 0.1 nM: less than gives Y; not less than gives N.

// below: answered compounds
1) C[C@]12C[C@H](c3ccc(/C=C/CNC(=O)NCC(=O)O)cc3)C3=C4CCC(=O)C=C4CCC3C1CC[C@@]2(O)C(F)(F)C(F)(F)F (stereo partly shown) = N
2) COc1ccc(C/C=C/c2ccc([C@H]3C[C@@]4(C)[C@@H](CC[C@@]4(O)C(F)(F)C(F)(F)F)[C@@H]4CCC5=CC(=O)CCC5=C43)cc2)cc1 = N

Query string: Please state whether IC50 is below 0.1 nM for COC(=O)c1cccc(/C=C/c2ccc([C@H]3C[C@@]4(C)[C@@H](CC[C@@]4(O)C(F)(F)C(F)(F)F)[C@@H]4CCC5=CC(=O)CCC5=C43)cc2)c1
Result string: Y

Query string: Is IC50 strictly under 0.1 nM for the entry C[C@]12C[C@H](c3ccc(/C=C/c4ccccn4)cc3)C3=C4CCC(=O)C=C4CC[C@H]3[C@@H]1CC[C@@]2(O)C(F)(F)C(F)(F)F ?
Result string: N

Query string: Is 0.1 nM strictly greater than the compound's reported IC50? compound: C[C@]12C[C@H](c3ccc(/C=C/CNC(=O)NCc4ccccc4)cc3)C3=C4CCC(=O)C=C4CC[C@H]3[C@@H]1CC[C@@]2(O)C(F)(F)C(F)(F)F
Result string: Y

====

Experiment: Metabolic stability in rat liver microsomes
Format: in vitro ADME
Rule: Predicted Fmax [%] (maximum oral bioavailability) Rat under 80% gives Not met, otherwise Met.

Some solved cases for reference:
1) C=CC=Cc1ccc([C@H]2C[C@@]3(C)C(CC[C@@]3(O)C(F)(F)C(F)(F)F)C3CCC4=CC(=O)CCC4=C32)cc1 (mixture of isomers) [Example 18] = Not met
2) CC(=O)/C=C/c1ccc([C@H]2C[C@@]3(C)[C@@H](CC[C@@]3(O)C(F)(F)C(F)(F)F)[C@@H]3CCC4=CC(=O)CCC4=C32)cc1 [Example 16] = Not met

Query string: Please tell me: is the compound C[C@]12C[C@H](c3ccc(/C=C/CO)cc3)C3=C4CCC(=O)C=C4CC[C@H]3[C@@H]1CC[C@@]2(O)C(F)(F)C(F)(F)F [Example 2] at or over 80% in terms of Predicted Fmax [%] (maximum oral bioavailability) Rat?
Result string: Not met

Query string: Quick check: does Cc1nc(/C=C/c2ccc([C@H]3C[C@@]4(C)[C@@H](CC[C@@]4(O)C(F)(F)C(F)(F)F)[C@@H]4CCC5=CC(=O)CCC5=C43)cc2)cs1 [Example 9] have Predicted Fmax [%] (maximum oral bioavailability) Rat greater than or equal to 80%?
Result string: Not met

====

Listing of entries alongside the reported pIC50.
Target: human progesterone receptor A (Homo sapiens, UniProt P06401)
Experiment: Progesterone receptor-antagonistic action in stably transfected SK-N-MC cells with MMTV-LUC reporter (PR-A)
Conditions: antagonistic potency against 0.1 nmol/l promegestone, 24 hours, luciferase
Worth noting: pIC50 values are minus log10 of concentrations stated in mol/L.

1. C=Cc1cccc([C@H]2C[C@@]3(C)[C@@H](CC[C@@]3(O)C(F)(F)C(F)(F)F)[C@@H]3CCC4=CC(=O)CCC4=C32)c1 = 8.52

Entry COC(=O)c1ccc(/C=C/c2ccc([C@H]3C[C@@]4(C)[C@@H](CC[C@@]4(O)C(F)(F)C(F)(F)F)[C@@H]4CCC5=CC(=O)CCC5=C43)cc2)cc1 ; pIC50 = 10.05

Please fill in: pIC50 reported for C[C@]12C[C@H](c3ccc(/C=C/c4ccc(C(=O)O)cc4)cc3)C3=C4CCC(=O)C=C4CC[C@H]3[C@@H]1CC[C@@]2(O)C(F)(F)C(F)(F)F = 10.10

====

Target: human progesterone receptor B (Homo sapiens)
Test: Progesterone receptor-antagonistic action in stably transfected SK-N-MC cells with MMTV-LUC reporter (PR-B)
Details: antagonistic potency against 0.1 nmol/l promegestone, 24 hours, luciferase
Entries annotated with measured log10 of IC50
Short version: log10 scale, IC50, pM.

1. C[C@]12C[C@H](c3ccc(/C=C/CC(C(=O)O)C(=O)O)cc3)C3=C4CCC(=O)C=C4CC[C@H]3[C@@H]1CC[C@@]2(O)C(F)(F)C(F)(F)F [Example 5] = 2.11
2. C[C@]12C[C@H](c3ccc(/C=C/CNC(=O)Nc4ccc(C(=O)O)cc4)cc3)C3=C4CCC(=O)C=C4CC[C@H]3[C@@H]1CC[C@@]2(O)C(F)(F)C(F)(F)F [Example 56] = 3.28
3. Cc1nc(/C=C/c2cccc([C@H]3C[C@@]4(C)[C@@H](CC[C@@]4(O)C(F)(F)C(F)(F)F)[C@@H]4CCC5=CC(=O)CCC5=C43)c2)cs1 [Example 24] = 3.00

Considering C[C@]12C[C@H](c3ccc(/C=C/C#N)cc3)C3=C4CCC(=O)C=C4CC[C@H]3[C@@H]1CC[C@@]2(O)C(F)(F)C(F)(F)F [Example 14] , its log10 of IC50 with human progesterone receptor B (Homo sapiens) was recorded as 1.04

Readout log10 of IC50 for COC(=O)c1cccc(/C=C/c2ccc([C@H]3C[C@@]4(C)[C@@H](CC[C@@]4(O)C(F)(F)C(F)(F)F)[C@@H]4CCC5=CC(=O)CCC5=C43)cc2)c1 [Example 30] , test system human progesterone receptor B (Homo sapiens), was 1.90

The value of log10 of IC50 recorded for C[C@]12C[C@H](c3ccc(/C=C/c4ccccn4)cc3)C3=C4CCC(=O)C=C4CC[C@H]3[C@@H]1CC[C@@]2(O)C(F)(F)C(F)(F)F [Example 6] when tested on human progesterone receptor B (Homo sapiens) reads 2.08

Param item: Cc1nc2cc(/C=C/c3cccc([C@H]4C[C@@]5(C)[C@@H](CC[C@@]5(O)C(F)(F)C(F)(F)F)[C@@H]5CCC6=CC(=O)CCC6=C54)c3)ccc2s1 [Example 25] ; param system: human progesterone receptor B (Homo sapiens); output log10 of IC50: 3.30

Given the compound Cc1ccc(NC(=O)NC/C=C/c2ccc([C@H]3C[C@@]4(C)[C@@H](CC[C@@]4(O)C(F)(F)C(F)(F)F)[C@@H]4CCC5=CC(=O)CCC5=C43)cc2)cc1 [Example 45] and test system human progesterone receptor B (Homo sapiens), the measured log10 of IC50 is 2.00

====

Experiment: Metabolic stability in human liver microsomes
Type: in vitro ADME
Conditions: 1 μM, well-stirred model
Excerpt: Determination of Metabolic Stability in Human and Rat Liver Microsomes Isolated human liver microsomes (HLM) were used to assess the metabolic stability of compounds of general formula I. […]
measured property: Predicted clearance [l/h/kg] Human

Known results for compounds:
1. Cc1nc(/C=C/c2ccc([C@H]3C[C@@]4(C)[C@@H](CC[C@@]4(O)C(F)(F)C(F)(F)F)[C@@H]4CCC5=CC(=O)CCC5=C43)cc2)cs1 [Example 9] = 0.43 L/h/kg
2. C=CC=Cc1ccc([C@H]2C[C@@]3(C)C(CC[C@@]3(O)C(F)(F)C(F)(F)F)C3CCC4=CC(=O)CCC4=C32)cc1 (mixture of isomers) [Example 18] = 0.84 L/h/kg

# Predicted clearance [l/h/kg] Human of C[C@]12C[C@H](c3ccc(/C=C/C=C/C(=O)O)cc3)C3=C4CCC(=O)C=C4CC[C@H]3[C@@H]1CC[C@@]2(O)C(F)(F)C(F)(F)F [Example 17] = 0.89 L/h/kg

// Predicted clearance [l/h/kg] Human lookup, compound = Cc1nc2cc(/C=C/c3ccc([C@H]4C[C@@]5(C)[C@@H](CC[C@@]5(O)C(F)(F)C(F)(F)F)[C@@H]5CCC6=CC(=O)CCC6=C54)cc3)ccc2s1 [Example 10] , result: 0.36 L/h/kg

Looking up C[C@]12C[C@H](c3ccc(/C=C/CC(C#N)C#N)cc3)C3=C4CCC(=O)C=C4CCC3C1CC[C@@]2(O)C(F)(F)C(F)(F)F (stereo partly drawn) [Example 27] , I found its Predicted clearance [l/h/kg] Human recorded as 0.98 L/h/kg

# Predicted clearance [l/h/kg] Human (compound: CCO/N=C/c1ccc([C@H]2C[C@@]3(C)[C@@H](CC[C@@]3(O)C(F)(F)C(F)(F)F)[C@@H]3CCC4=CC(=O)CCC4=C32)cc1 [Example 36] ) is 0.36 L/h/kg
